Entry source: the supplement of paper PMC5908809

Test system: normal primary NK cells, pool 2 (3 donors) (IL-2 2.5 ng/mL)
test_details: percent inhibition of viability; higher = more inhibition
assay_conditions: 72 h; 10 nM

| compound | percent inhibition of viability (%) |
| --- | --- |
| C[C@@H](Oc1ccc2[nH]nc(/C=C/c3cnn(CCO)c3)c2c1)c1c(Cl)cncc1Cl (max concentration tested 1000 nM) | 27.6 |
| COc1cc(N2CCN(C)CC2)ccc1Nc1nccc(-c2cn(C)c3cnccc23)n1 [AZ191] (max concentration tested 10000 nM) | -5.94 |
| CCCCCOC(=O)Nc1nc(=O)n([C@@H]2O[C@H](C)[C@@H](O)[C@H]2O)cc1F [Capecitabine] (max concentration tested 10000 nM) | 1.21 |
| O=C(O)c1ccc2c(c1)nc(Nc1cccc(Cl)c1)c1ccncc12 [Silmitasertib] (max concentration tested 10000 nM) | -6.36 |
| c1cc(CN2CCCNCCNCCCNCC2)ccc1CN1CCCNCCNCCCNCC1 [Plerixafor] (max concentration tested 10000 nM) | -6.73 |
| Cc1c(C(=O)Nc2ccc(N3C[C@@H](C)O[C@@H](C)C3)nc2)cccc1-c1ccc(OC(F)(F)F)cc1 [Sonidegib] (max concentration tested 10000 nM) | -3.94 |
| S=C(NCc1ccc2c(c1)OCO2)N1CCN(c2ncnc3c2oc2ccccc23)CC1 [Amuvatinib] (max concentration tested 10000 nM) | 2.76 |
| CC[C@H](CO)Nc1nc(NCc2ccccc2)c2ncn(C(C)C)c2n1 [Seliciclib] (max concentration tested 10000 nM) | -4.83 |
| c1ccc([C@H]2CN3CCSC3=N2)cc1 [Levamisole] (max concentration tested 10000 nM) | -0.55 |
| CC(C)CC(=O)Nc1n[nH]c2c1CN(C(=O)C1CCN(C)CC1)C2(C)C (max concentration tested 10000 nM) | 3.3 |
| CC(O)(CS(=O)(=O)c1ccc(F)cc1)C(=O)Nc1ccc(C#N)c(C(F)(F)F)c1 (stereo not drawn) [Bicalutamide] (max concentration tested 10000 nM) | -1.32 |
| Nc1cccc2c1CN(C1CCC(=O)NC1=O)C2=O (stereo not drawn) [Lenalidomide] (max concentration tested 100000 nM) | -16.8 |
| C1=N/C2=N/c3ccc(OCCN4CCCC4)c(c3)COC/C=C/COCc3cccc(c3)C(=C1)N2 [Pacritinib] (max concentration tested 10000 nM) | 0.56 |

====

System: NKL (IL-2 2.5 ng/mL)
test_details: drug sensitivity score (DSS) (DSS units); higher = more sensitive; extreme values may be limits of the assay
assay_conditions: 72 h
Each entry below carries its reported drug sensitivity score.
observable: drug sensitivity score

| molecule | observable | reading |
| --- | --- | --- |
| Cc1cc(Nc2cc(N3CCN(C)CC3)nc(/C=C/c3ccccc3)n2)n[nH]1 [ENMD-2076] (max concentration tested 10000 nM) | drug sensitivity score | 14 |
| CNC(=O)c1ccc(C)c(-n2c(C)cc(OCc3ccc(F)cc3F)c(Br)c2=O)c1 (max concentration tested 1000 nM) | drug sensitivity score | 5.52 |
| COc1cc2c(Oc3ccc(NC(=O)C4(C(=O)Nc5ccc(F)cc5)CC4)cc3F)ccnc2cc1OCCCN1CCOCC1 [Foretinib] (max concentration tested 1000 nM) | drug sensitivity score | 5 |
| COc1ccccc1S(=O)(=O)Nc1ccc2c(c1)CN(C)C(=O)N2 [PFI-1] (max concentration tested 10000 nM) | drug sensitivity score | 8.04 |
| O=C(CCBr)N1CCN(C(=O)CCBr)CC1 [Pipobroman] (max concentration tested 10000 nM) | drug sensitivity score | 1.54 |
| C[C@]12CC[C@H](O)CC1=CC[C@@H]1[C@@H]2CC[C@]2(C)C(c3cccnc3)=CC[C@@H]12 [Abiraterone] (max concentration tested 5000 nM) | drug sensitivity score | 0 |

====

System: SNK-6 (IL-2 2.5 ng/mL)
test_details: percent inhibition of viability; higher = more inhibition
assay_conditions: 72 h; 0.1 nM
Here the recorded percent inhibition of viability is given for each entry.

| compound | percent inhibition of viability / % |
| --- | --- |
| C/C(=C\c1csc(C)n1)[C@@H]1C[C@@H]2O[C@]2(C)CCC[C@H](C)[C@H](O)[C@@H](C)C(=O)C(C)(C)[C@@H](O)CC(=O)O1 [Patupilone] (max concentration tested 1000 nM) | 5.42 |
| Cc1ccc(NC(=O)c2ccc(CN3CC[C@H](N(C)C)C3)c(C(F)(F)F)c2)cc1Nc1nccc(-c2cncnc2)n1 [Bafetinib] (max concentration tested 1000 nM) | -21 |
| COc1ccc(-c2ccc3ncc4c(c3c2)n(-c2ccc(N3CCNCC3)c(C(F)(F)F)c2)c(=O)n4C)cn1 [NVP-BGT226] (max concentration tested 1000 nM) | 8.89 |
| CCC/C=C/C=C/C(=O)O[C@H]1/C(=C/C(=O)OC)C[C@H]2C[C@H]([C@@H](C)O)OC(=O)C[C@H](O)C[C@@H]3C[C@H](OC(C)=O)C(C)(C)[C@](O)(C[C@@H]4C/C(=C/C(=O)OC)C[C@H](/C=C/C(C)(C)[C@]1(O)O2)O4)O3 [Bryostatin 1] (max concentration tested 100 nM) | 39.5 |
| CC(=O)Nc1ccc(C(=O)Nc2ccccc2N)cc1 [Tacedinaline] (max concentration tested 1000 nM) | 1.48 |

====

Tested on: YT (IL-2 2.5 ng/mL)
test_details: percent inhibition of viability; higher = more inhibition
assay_conditions: 72 h; 1000 nM
# percent inhibition of viability values compiled below

| compound | percent inhibition of viability [%] |
| --- | --- |
| CNC(=O)c1ccc(C)c(-n2c(C)cc(OCc3ccc(F)cc3F)c(Br)c2=O)c1 (max concentration tested 1000 nM) | 21.9 |
| Nc1cccc2c1C(=O)N(C1CCC(=O)NC1=O)C2=O (stereo unspecified) [Pomalidomide] (max concentration tested 10000 nM) | -5.5 |
| CC(O)(CS(=O)(=O)c1ccc(F)cc1)C(=O)Nc1ccc(C#N)c(C(F)(F)F)c1 (stereo unspecified) [Bicalutamide] (max concentration tested 10000 nM) | 17.9 |
| O=C(c1cc(Cc2n[nH]c(=O)c3ccccc23)ccc1F)N1CCN(C(=O)C2CC2)CC1 [Olaparib] (max concentration tested 10000 nM) | 3.91 |
| C[C@@H]1COC(Nc2ccc3ncnc(Nc4ccc(OCc5nccs5)c(Cl)c4)c3c2)=N1 [Varlitinib] (max concentration tested 10000 nM) | 8.48 |
| COc1cc2nccc(Oc3ccc(NC(=O)C4(C(=O)Nc5ccc(F)cc5)CC4)cc3)c2cc1OC [Cabozantinib] (max concentration tested 1000 nM) | 11.3 |

====

System: NKL (IL-2 2.5 ng/mL)
test_details: drug sensitivity score (DSS) (DSS units); higher = more sensitive; extreme values may be limits of the assay
assay_conditions: 72 h
observable: drug sensitivity score

| compound | tested_target | reading |
| --- | --- | --- |
| Cc1c(Cn2c(C)nc3c(C(=O)O)cc(N4CCOCC4)cc32)cccc1C(F)(F)F (max concentration tested 10000 nM) | NKL (IL-2 2.5 ng/mL) | 0.29 |
| Nc1ncnc2c1c(COc1cccc(Cl)c1)nn2C1CCOCC1 (max concentration tested 10000 nM) | NKL (IL-2 2.5 ng/mL) | 1.92 |
| C[C@@H]1CN(Cc2ccc(F)cc2)[C@@H](C)CN1C(=O)c1cc2c(C(=O)C(=O)N(C)C)cn(C)c2cc1Cl [Talmapimod] (max concentration tested 10000 nM) | NKL (IL-2 2.5 ng/mL) | 1.47 |

====

Test system: normal primary NK cells, pool 1 (3 donors) (IL-2 2.5 ng/mL)
test_details: percent inhibition of viability; higher = more inhibition
assay_conditions: 72 h; 100 nM
observable: percent inhibition of viability (%)

| molecule | reading |
| --- | --- |
| CNC(=O)c1ccc(C)c(-n2c(C)cc(OCc3ccc(F)cc3F)c(Br)c2=O)c1 (max concentration tested 1000 nM) | 13.8 |
| Cn1nnc2c(C(N)=O)ncn2c1=O [Temozolomide] (max concentration tested 100000 nM) | 2.46 |
| C/C(=C\c1csc(C)n1)[C@@H]1C[C@@H]2O[C@]2(C)CCC[C@H](C)[C@H](O)[C@@H](C)C(=O)C(C)(C)[C@@H](O)CC(=O)O1 [Patupilone] (max concentration tested 1000 nM) | 5.4 |
| Cn1cncc1[C@@](N)(c1ccc(Cl)cc1)c1ccc2c(c1)c(-c1cccc(Cl)c1)cc(=O)n2C [Tipifarnib] (max concentration tested 10000 nM) | 32.4 |
| CO[C@H]1/C=C\C=C(/C)C(=O)NC2=CC(=O)C(NCCN(C)C)=C(C[C@@H](C)C[C@H](OC)[C@H](O)[C@@H](C)/C=C(\C)[C@@H]1OC(N)=O)C2=O [Alvespimycin] (max concentration tested 1000 nM) | 73 |
| Nc1cccc2c1C(=O)N(C1CCC(=O)NC1=O)C2=O (configuration not stated) [Pomalidomide] (max concentration tested 10000 nM) | -10.1 |
| Cn1cc(CNCC2CCN(c3ncc(C(=O)NO)cn3)CC2)c2ccccc21 [Quisinostat] (max concentration tested 1000 nM) | 97.3 |
